# Test system: IL-12
# assay.details: Murine in vitro assay: IL-12 production in IFNγ/SAC-stimulated splenocytes of immunized Balb/c mice (ELISA)
# Format: cell-based
# condition.context: Mus musculus, Splenocyte; Balb/c splenocytes stimulated with IFNγ and SAC
observation.type: IC50 (nM)
Record the value in nM, omitting the unit from your answer.

// query IC50 value for entry Cc1[nH]c2ccc(NC(=O)c3cc(OCCN)nc(N4CCOCC4)n3)cc2c1C [Compound 273]
1250
